- METHOD NOTES: self-splicing fitness, log relative to wild type (ln ratio); higher = more splicing; Tetrahymena group I intron in knt gene, E. coli kanamycin selection, DiMSum; sequences stand for … in CUCUCU…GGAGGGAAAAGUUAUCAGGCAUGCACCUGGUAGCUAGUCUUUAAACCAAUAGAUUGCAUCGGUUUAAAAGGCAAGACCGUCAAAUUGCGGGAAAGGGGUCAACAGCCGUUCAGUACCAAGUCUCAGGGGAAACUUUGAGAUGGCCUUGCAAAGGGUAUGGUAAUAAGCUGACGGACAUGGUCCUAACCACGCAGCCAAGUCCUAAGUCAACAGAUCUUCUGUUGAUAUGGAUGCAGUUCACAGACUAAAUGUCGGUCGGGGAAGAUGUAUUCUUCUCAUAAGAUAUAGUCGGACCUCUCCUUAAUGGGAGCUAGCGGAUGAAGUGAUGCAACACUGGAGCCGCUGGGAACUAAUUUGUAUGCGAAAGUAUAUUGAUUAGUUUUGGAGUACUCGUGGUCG;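 also: selection with 25 µg/mL kanamycin versus none on LB agar overnight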
- TEST CONDITIONS: 37 °C

# RESIDUE STRING, self-splicing fitness (ln)
rows = [
    ("CAGGAGCAAUAUUACGUUGC", -2.26),
    ("GUGAAGCAAUAUUACGAAGG", -0.854),
    ("GACAAGCAAUAUUACGGAGA", -1.98),
    ("AGAGAGCAAUAUUACGAAUG", -3.27),
    ("AAAUAGCAAUAUUACGGCCU", 0.661),
    ("AGCAAGCAAUAUUACGCAGG", -1.63),
    ("AUAUAGCAAUAUUACGGUUC", -2.5),
    ("UAGGAGCAAUAUUACGAUGC", -1.01),
]

---

- METHOD NOTES: self-splicing fitness, log relative to wild type (ln ratio); higher = more splicing; Tetrahymena group I intron in knt gene, E. coli kanamycin selection, DiMSum; sequences stand for … in CUCUCU…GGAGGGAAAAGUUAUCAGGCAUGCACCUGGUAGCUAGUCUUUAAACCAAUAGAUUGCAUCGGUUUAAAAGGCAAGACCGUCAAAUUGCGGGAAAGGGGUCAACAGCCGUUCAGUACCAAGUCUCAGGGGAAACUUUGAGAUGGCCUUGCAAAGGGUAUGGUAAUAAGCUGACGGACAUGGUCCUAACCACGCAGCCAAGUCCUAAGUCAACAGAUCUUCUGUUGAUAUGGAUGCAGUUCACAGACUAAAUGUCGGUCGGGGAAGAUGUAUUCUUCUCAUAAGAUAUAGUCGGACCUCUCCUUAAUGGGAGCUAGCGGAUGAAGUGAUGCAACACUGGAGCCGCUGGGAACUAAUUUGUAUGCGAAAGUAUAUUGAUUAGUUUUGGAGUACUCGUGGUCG
- TEST CONDITIONS: 37 °C
Range-based classes on measured self-splicing fitness (ln): low end: < -2; middle: ≥ -2 and < -1; high end: ≥ -1

# RESIDUE STRING, ASSIGNED LABEL
data = [
    ("ACUCAGCAAUAUUACGGCUU", "high end"),
    ("CAAGAGCAAUAUUACGCGAC", "middle"),
    ("GAUCAGCAAUAUUACGAAUA", "high end"),
    ("GUGAAGCAAUAUUACGGUAG", "high end"),
    ("UGCGAGCAAUAUUACGGCGG", "high end"),
    ("UCGUAGCAAUAUUACGUGAU", "middle"),
    ("AAGGAGCAAUAUUACGGGAG", "low end"),
    ("CUACAGCAAUAUUACGCCGU", "low end"),
    ("CCCGAGCAAUAUUACGCCCU", "low end"),
    ("AGGAAGCAAUAUUACGUUCA", "middle"),
    ("ACUUAGCAAUAUUACGAUAU", "middle"),
    ("CAGCAGCAAUAUUACGAGUU", "low end"),
    ("AAGCAGCAAUAUUACGAAGC", "middle"),
    ("CGUCAGCAAUAUUACGUACC", "high end"),
    ("AGAGAGCAAUAUUACGGCAA", "middle"),
]

Origin of the recorded values: the supplement of paper PMC7877785
